# System: HTT mRNA
# method-summary: Splicing RT-qPCR assay, HTT canonical (CJ) and alternative (AJ) junction mRNA
# Assay type: cell-based, human
# measurement-parameters: Homo sapiens, A673 or K562 cells, 24 hours compound treatment, read-out: HTT AJ (AC50, increase in alternative junction mRNA)
Below is a list of entries, each paired with its recorded AC50 value.

[
  {
    "molecule": "Cc1cn2cc(NC(=O)c3ccc(N4CCC(CN)C4)c4cn(C)nc34)cc(F)c2n1 (centres unmarked)",
    "readout-value": "> 10 µM"
  },
  {
    "molecule": "CC(=O)NC1CCN(c2ccc(C(=O)Nc3cc(F)c4nc(C)cn4c3)c3nn(C)cc23)CC1",
    "readout-value": "> 10 µM"
  }
]

# input for lookup
Task: Fill in the blank: the reported AC50 of CCn1cc2c(N3CCC(C)(NC)C3)ccc(C(=O)Nc3cc(F)c4nc(C)cn4c3)c2n1 (centres unmarked) is ____.
Result: > 10 µM

---

# Test system: Target C mRNA
# method-summary: Splicing RT-qPCR gene panel, Target C canonical junction (CJ) mRNA
# Assay type: cell-based, human
# measurement-parameters: Homo sapiens, Tables 4A/4B, read-out: Target C (IC50, decrease in CJ mRNA, gene panel)
experimental-readout: IC50

[
  {
    "compound": "Cc1cn2cc(NC(=O)c3ccc(N4CCNCC4)c4cn(CC#N)nc34)cc(F)c2n1 [Compound 413]",
    "IC50": "> 10 µM"
  },
  {
    "compound": "C=Cn1cc2c(N3CCNCC3)ccc(C(=O)Nc3cc(F)c4nc(C)cn4c3)c2n1 [Compound 363]",
    "IC50": "< 0.1 µM"
  },
  {
    "compound": "Cc1cn2cc(NC(=O)c3ccc(N4CCN(C)C(C)C4)c4cc(C)oc34)cc(F)c2n1 (stereo not shown) [Compound 191]",
    "IC50": "1 to 10 µM"
  },
  {
    "compound": "Cc1cn2cc(NC(=O)c3ccc(N4CCNCC4)c4cn(C)nc34)c(F)cc2n1 [Compound 333]",
    "IC50": "> 10 µM"
  },
  {
    "compound": "CCn1cc2c(N3CCN4C(=O)OCC4C3)ccc(C(=O)Nc3cc(F)c4nc(C)cn4c3)c2n1 (stereo not shown) [Compound 415]",
    "IC50": "0.1 to 1 µM"
  },
  {
    "compound": "CCc1cn2c(N3CCNCC3)ccc(C(=O)Nc3cc(F)c4nc(C)cn4c3)c2n1 [Compound 943]",
    "IC50": "1 to 10 µM"
  },
  {
    "compound": "CN[C@H]1CCN(c2ccc(C(=O)Nc3cn4cc(C)nc4c(OC)n3)c3nn(CCOC)cc23)C1 [Compound 432]",
    "IC50": "> 10 µM"
  },
  {
    "compound": "CCn1cc2c(N3CCN(C)CC3)ncc(C(=O)Nc3cc(F)c4nc(C)cn4c3)c2n1 [Compound 954]",
    "IC50": "1 to 10 µM"
  },
  {
    "compound": "Cc1cn2cc(NC(=O)c3ccc(N4CCC(N)(C(F)(F)F)CC4)c4cn(C)nc34)cc(F)c2n1 [Compound 370]",
    "IC50": "> 10 µM"
  },
  {
    "compound": "Cc1cn2cc(NC(=O)c3ccc(N4C[C@@H](C)N[C@@H](C)C4)c4cn(C)nc34)nc(C)c2n1 [Compound 334]",
    "IC50": "> 10 µM"
  }
]

Task: Fill in the blank: the reported IC50 of CCc1cc2c(N3CCNCC3)ccc(C(=O)Nc3cc(F)c4nc(C)cn4c3)n2n1 [Compound 960] is ____.
Result: 0.1 to 1 µM

Task: Could you do the same for Cc1cn2cc(NC(=O)c3ccc(N4CCC(NCCO)CC4)c4cn(C)nc34)cc(F)c2n1 [Compound 369] , please?
Result: 1 to 10 µM

Task: Could you do the same for CCOc1nc(NC(=O)c2ccc(N3CCC(NC)C3)c3cn(C)nc23)cn2cc(C)nc12 (stereo not shown) [Compound 420] , please?
Result: > 10 µM

Task: Could you do the same for Cc1cn2cc(NC(=O)c3ccc(N4CCNCC4)c4oc(C)nc34)cc(F)c2n1 [Compound 141] , please?
Result: 0.1 to 1 µM

Task: Could you do the same for COc1cc(C(=O)Nc2cc(F)c3nc(C)cn3c2)c2nn(C)cc2c1N1CCNCC1 [Compound 311] , please?
Result: > 10 µM

Task: Could you do the same for CCn1cc2c(C3OCC(C)(N)CO3)ccc(C(=O)Nc3cc(F)c4nc(C)cn4c3)c2n1 (stereo not shown) [Compound 454] , please?
Result: > 10 µM

meta.source: patent US20250154169A1
